- EXPERIMENTAL TARGET: human CaMKIIδ (Homo sapiens)
- Construct: Full-length, glutathione-S-transferase(GST)-tagged, human CaMKIIδ was purchased from Carna Biosciences; purchased Carna Biosciences (CaMKIIδ); Wako Pure Chemical Industries (calmodulin) 02-111
- PROCEDURE TEXT: Evaluation of in vitro CaMKII inhibitory activity (binding assay, TR-FRET)
- TEST CONTEXT: in vitro CaMKII inhibitory activity (binding assay), human CaMKIIδ; read-out: Act
pIC50: −log10 of the molar value.
TEST READOUT: pIC50

>>> measured("C[C@@H](Cn1cnnn1)Oc1cccc(-c2ccc3ncc(-c4nccc(OCC(F)F)c4C#N)n3n2)c1")
"> 8.00"
>>> measured("COc1cc(-c2cnc3ccc(-c4cccc(O[C@@H](C)Cn5cnnn5)c4)nn23)c(C#N)cn1")
"> 8.00"
>>> measured("C[C@@H](Cn1cnnn1)Oc1cccc(-c2ccc3ncc(-c4c[n+]([O-])ccc4C#N)n3n2)c1")
"> 8.00"
>>> measured("C[C@@H](Cn1cnnn1)Oc1cccc(-c2ccc3ncc(-c4cc(Cl)cn(C)c4=O)n3n2)c1")
"> 8.00"

====

- EXPERIMENTAL TARGET: human CaMKIIδ (Homo sapiens)
- Construct: Full-length, glutathione-S-transferase(GST)-tagged, human CaMKIIδ was purchased from Carna Biosciences; purchased Carna Biosciences (CaMKIIδ); Wako Pure Chemical Industries (calmodulin) 02-111
- PROCEDURE TEXT: Evaluation of in vitro CaMKII inhibitory activity (binding assay, TR-FRET)
- TEST CONTEXT: human CaMKIIδ, TR-FRET binding assay; class symbols A/B/C; read-out: Act (CaMKII inhibitory activity, binding assay)
This listing pairs molecules with measured IC50.
TEST READOUT: IC50

>>> measured("C[C@@H](Cn1cnnn1)Oc1cc(-c2ccn3ncc(-c4cccc(F)c4C(N)=O)c3n2)ccc1F")
"10 to 100 nM"
>>> measured("C[C@@H](Cn1cnnn1)Oc1cc(-c2ccc3ncn(-c4ccccn4)c3n2)ccc1F")
"< 10 nM"
>>> measured("C[C@@H](Cn1cnnn1)Oc1cc(-c2ccn3ncc(-c4cccnc4C#N)c3n2)ccc1F")
"< 10 nM"
>>> measured("C[C@@H](Cn1cnnn1)Oc1cc(-c2ccc3ncc(-c4cc(C(=O)O)ccc4C#N)n3n2)ccc1F")
"10 to 100 nM"
>>> measured("[2H]C([2H])([2H])Oc1cc(F)cc(-n2cnc3ccc(-c4cccc(O[C@@H](C)Cn5cnnn5)n4)nc32)c1C#N")
"< 10 nM"
>>> measured("C[C@@H](Cn1cnnn1)Oc1cccc(-c2ccn3ncc(-c4cccc(C(=O)NC5CN(C)C5)c4)c3n2)c1")
"< 10 nM"
>>> measured("C[C@@H](Cn1cnnn1)Oc1cc(-c2ccn3ncc(-c4cncnc4)c3n2)ccc1F")
"< 10 nM"
>>> measured("COc1cccc(-c2cnn3ccc(-c4ccc(F)c(O[C@@H](C)Cn5cnnn5)c4)nc23)c1")
"< 10 nM"
>>> measured("C[C@@H](Cn1cnnn1)Oc1cc(-c2ccn3ncc(-c4cccs4)c3n2)ccc1F")
"< 10 nM"

====

Quick list: IC50 per entry.
- EXPERIMENTAL TARGET: human CaMKIIδ (Homo sapiens)
- Construct: Full-length, glutathione-S-transferase(GST)-tagged, human CaMKIIδ was purchased from Carna Biosciences; purchased Carna Biosciences (CaMKIIδ); Wako Pure Chemical Industries (calmodulin) 02-111
- PROCEDURE TEXT: Evaluation of in vitro CaMKII inhibitory activity (binding assay, TR-FRET)
- TEST CONTEXT: human CaMKIIδ, TR-FRET binding assay; class symbols A/B/C; read-out: Act (CaMKII inhibitory activity, binding assay)
TEST READOUT: IC50

>>> measured("COCCNc1cccc(-c2cnn3ccc(-c4ccc(F)c(O[C@@H](C)Cn5cnnn5)c4)nc23)c1C#N")
"< 10 nM"
>>> measured("C[C@@H](Cn1cnnn1)Oc1cc(-c2ccc3ncc(-c4cccc(OCC5CCNC5=O)c4C#N)n3n2)ccc1F (stereo partly drawn)")
"< 10 nM"
>>> measured("CC(C)c1ccc(-c2cnn3ccc(-c4ccc(F)c(O[C@@H](C)Cn5cnnn5)c4)nc23)cc1")
"> 100 nM"
>>> measured("C[C@@H](Cn1cnnn1)Oc1cc(-c2ccc3ncn(-c4cccc5c4C(=O)N(C)C5=O)c3n2)ccc1F")
"> 100 nM"
>>> measured("C[C@@H](Cn1cnnn1)Oc1cccc(-c2ccn3ncc(-c4cccc(C(=O)NCc5ccccc5)c4)c3n2)c1")
"< 10 nM"
>>> measured("C[C@@H](Cn1cnnn1)Oc1cc(-c2ccc3ncn(-c4ccn(C)n4)c3n2)ccc1F")
"< 10 nM"
>>> measured("C[C@@H](Cn1cnnn1)Oc1cc(-c2ccc3ncc(-c4cc(C#N)c[nH]c4=O)n3n2)ccc1F")
"< 10 nM"
>>> measured("C[C@@H](Cn1cnnn1)Oc1cc(-c2ccc3ncc(-c4cccc(OCC(N)=O)c4C#N)n3n2)ccc1F")
"< 10 nM"
>>> measured("C[C@@H](Cn1cnnn1)Nc1ccnc(-c2ccc3ncc(-c4cc(F)ccc4C#N)n3n2)c1")
"< 10 nM"
>>> measured("C[C@@H](Cn1cnnn1)Oc1cc(-c2ccn3ncc(-c4cn(C)nc4C#N)c3n2)ccc1F")
"< 10 nM"
>>> measured("C[C@@H](Cn1cnnn1)Oc1cc(-c2ccc3ncc(-c4cccc(OC5CCNC5=O)c4C#N)n3n2)ccc1F (stereo partly drawn)")
"< 10 nM"
>>> measured("C[C@@H](Cn1cnnn1)Oc1cc(-c2ccn3ncc(-c4ccsc4C#N)c3n2)ccc1F")
"< 10 nM"
>>> measured("C[C@@H](Cn1cnnn1)Oc1cc(-c2ccn3ncc(-c4ccc(F)cc4)c3n2)ccc1F")
"< 10 nM"
>>> measured("C[C@@H](Cn1cnnn1)Oc1cc(-c2ccn3ncc(-c4cccc(C(=O)O)c4)c3n2)ccc1F")
"< 10 nM"
>>> measured("C[C@@H](Cn1cnnn1)Oc1cccc(-c2ccn3ncc(-c4cccc(C(=O)NCCC5CCCCC5)c4)c3n2)c1")
"10 to 100 nM"
>>> measured("C#Cc1ccccc1-c1cnc2ccc(-c3ccc(F)c(O[C@@H](C)Cn4cnnn4)c3)nn12")
"< 10 nM"
>>> measured("C[C@@H](Cn1cnnn1)Oc1cc(-c2ccn3ncc(-c4cncc(C#N)c4)c3n2)ccc1F")
"< 10 nM"
>>> measured("CCN(CC)CCNC(=O)c1cccc(-n2cnc3ccc(-c4ccc(F)c(O[C@@H](C)Cn5cnnn5)c4)nc32)c1")
"< 10 nM"
>>> measured("C[C@@H](Cn1cnnn1)Oc1cc(-c2ccc3ncc(-c4cc(C(=O)NCCN5CCOCC5)ccc4C#N)n3n2)ccc1F")
"10 to 100 nM"
>>> measured("C[C@@H](Cn1cnnn1)Oc1cc(-c2ccn3ncc(-c4ccccc4C=O)c3n2)ccc1F")
"< 10 nM"
>>> measured("COc1ccccc1-c1cnn2ccc(-c3ccc(F)c(O[C@@H](C)Cn4cnnn4)c3)nc12")
"< 10 nM"

Hello, the source for this data is patent US12528816B2, in case you need it.
